B1: mouse secretagogin [mouse] / helix-b of the Habc domain of mouse syntaxin-4 [mouse] (parent complex)
chain 1: MDNARRKTPARLDAACFWQIWQRFDKEEKGYIRETELDAFFDHLLAKSGTEDTLMEENVQKVKEQLMTSHNVSKEGRILMKELASMFLSEDENFLLFFRLETPLDNSVEFMQIWRKYDADSSGFISAAELCNFLRDLFLHHKKNISEAELEEYTSTMMKIFDKNKDGRLDLNDLARILALQENFLLQFKMDASSTEERKRDFEKIFAHYDVSKTGALEGPEVDGFVKDMMELVQPSISGVDLDKFREILLRHCDVNKDGKIQKSELALCLGLKINP
chain 2: TPLPEESMKQGLQNLREEIKQLGREVRAQLKAIEPQKE

Variants of: B1
Assay: ITC

sequenceChange	measurementUnits	Kd
chain 1 L270A	µM	16.2
